Recorded values, source patent US20230339970A1.

# test-target: human recombinant GST cleaved CSNK1D (Homo sapiens)
# Construct: GST (cleaved yes)
# assay-procedure: Purified Enzyme Assay (ADP-Glo CSNK1D Kinase Assay)
# condition-summary: 2 nM CSNK1D; peptide substrate 150 μM; ATP 20 μM; 45 minutes at room temperature
recorded-metric: IC50 (nM)
Answers are plain numbers, in nM.

Examples with their reported IC50 follow.
Prompt: Return IC50 for the following compound: Fc1ccc(-c2nn3c(c2-c2ccnc4[nH]ncc24)CCC(F)(COC(F)F)C3)nc1 (single isomer, unassigned) [Example 315]
Response: 73

Prompt: Name the recorded IC50 of the item Cc1cc(-c2c(-c3ccc(F)cc3)nn3c2CCC3)c2cn[nH]c2n1 [Example 5] in your answer.
Response: 1

Prompt: Answer with the recorded IC50 of Fc1ccc(-c2nn3c(c2-c2ccnc4[nH]ccc24)CCC3)nc1 [Example 6] only.
Response: 1

As a next step, examine the compound that follows.
Prompt: Given the compound Fc1ccc(-c2nn3c(c2-c2ccnc4[nH]ncc24)CCC2(C3)CC2(F)F)cc1 (single isomer, unassigned) [Example 325] , write its reported IC50.
Response: 1

====

# test-target: human recombinant GST cleaved CSNK1D (Homo sapiens, UniProt P48730)
# Construct: GST (cleaved yes)
# assay-procedure: Purified Enzyme Assay (ADP-Glo CSNK1D Kinase Assay)
# condition-summary: 2 nM CSNK1D; peptide substrate 150 μM; ATP 20 μM; 45 minutes at room temperature
recorded-metric: pIC50
Give bare numbers, as −log10 of the molar value.

Reference set (2 entries):
Prompt: Note down pIC50 recorded for `CCn1ncc2cc(-c3c(-c4ccc(F)cn4)nn4c3CCC4)cnc21`
Response: 7.66

Prompt: Find the measured pIC50 of [2H]C([2H])([2H])[C@@]1(C(F)(F)F)Cn2nc(-c3ccc(F)cn3)c(-c3ccnc4[nH]nc(Cl)c34)c2CO1 (single isomer, unassigned) and report it.
Response: 8.40

Shifting focus to the compound that follows.
Prompt: Report pIC50, nothing else, for this compound: Fc1ccc(-c2nn3c(c2-c2c(F)cnc4[nH]ncc24)OC[C@H]2C[C@H]2C3)nc1 (stereo in doubt)
Response: 8.22

====

# test-target: human CSNK1D (Homo sapiens)
# assay-procedure: Whole Cell nBRET CSNK1D Binding Assay
# condition-summary: living CHO cells stably expressing human CSNK1D tagged with nanoluciferase; NanoBret tracer 130 nM; 2 hours at 37 C
For each of the molecules below, state its IC50.
One number for each entry, in nM.

Record excerpt, results attached:
Prompt: Determine from records and report IC50 for `CC1(C)Cn2nc(-c3ccc(F)cn3)c(-c3cc(C(F)F)nc4[nH]ncc34)c2CO1`
Response: 141

Prompt: State its IC50: C[C@@H]1COCc2c(-c3ccnc4[nH]ncc34)c(-c3ccc(F)cc3)nn21 (single isomer, unassigned)
Response: 100

Prompt: Output IC50 of CC1(C(F)(F)F)Cn2nc(-c3ccc(F)cn3)c(-c3ccnc4[nH]ncc34)c2CO1 (stereo not drawn)
Response: 198

Prompt: Look up and state reported IC50 for `Fc1ccc(-c2nn3c(c2-c2ccncc2)OCCC3)cc1`
Response: 113

# map each molecule to its IC50
1. Fc1ccc(-c2nn3c(c2-c2ccnc4[nH]ncc24)CCC2(C3)CC2(F)F)cc1 (single isomer, unassigned) [Example 326]
2. Cc1cc(-c2c(-c3ccc(F)cn3)nn3c2OCCCC3)c2cn[nH]c2n1
3. CC1(C)COc2c(-c3ccnc4[nH]ncc34)c(-c3ccc(F)cc3)nn2C1
4. COc1ccc2nccc(-c3c(-c4ccc(F)cn4)nn4c3COC(C)(C)C4)c2n1
5. C[C@@H]1OCc2c(-c3ccnc4[nH]ncc34)c(-c3ccc(F)cn3)nn2[C@H]1C (stereo in doubt)
6. CC1(C)Cc2c(-c3ccnc4[nH]ccc34)c(-c3ccc(F)cn3)nn2C1

Response:
1. 23
2. 279
3. 1
4. 836
5. 751
6. 7

====

# test-target: human CSNK1D (Homo sapiens, UniProt P48730)
# Sequence (P48730 whole entry): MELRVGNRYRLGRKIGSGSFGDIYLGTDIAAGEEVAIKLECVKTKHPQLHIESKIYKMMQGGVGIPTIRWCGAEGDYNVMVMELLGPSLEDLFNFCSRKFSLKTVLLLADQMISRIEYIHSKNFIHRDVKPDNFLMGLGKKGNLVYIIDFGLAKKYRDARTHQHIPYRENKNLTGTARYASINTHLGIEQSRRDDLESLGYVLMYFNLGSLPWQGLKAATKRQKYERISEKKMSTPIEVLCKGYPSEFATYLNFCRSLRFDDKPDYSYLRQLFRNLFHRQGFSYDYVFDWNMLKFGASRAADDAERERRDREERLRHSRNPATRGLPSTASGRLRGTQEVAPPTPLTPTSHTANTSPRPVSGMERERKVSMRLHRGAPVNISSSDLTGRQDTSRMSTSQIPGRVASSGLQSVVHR
# assay-procedure: Whole Cell nBRET CSNK1D Binding Assay
# condition-summary: living CHO cells stably expressing human CSNK1D tagged with nanoluciferase; NanoBret tracer 130 nM; 2 hours at 37 C
recorded-metric: pIC50
One number for each entry, as −log10 of the molar value.

Prompt: Answer with the recorded pIC50 of `CC1(C)Cn2nc(-c3ccc(F)cn3)c(-c3c(F)cnc4[nH]nc(Cl)c34)c2CO1` only.
Response: 7.59

// for each compound in input: emit pIC50
1. Fc1ccc(-c2nn3c(c2-c2ccnc4[nH]nc(Cl)c24)C[C@@H]2C[C@@H]23)nc1
2. Fc1ccc(-c2nn3c(c2-c2ccnc4[nH]nc(Cl)c24)CC2(C3)CC2(F)F)nc1 (single isomer, unassigned) [Example 257]
3. Cc1cnc(N)cc1-c1c(-c2ccc(F)cn2)nn2c1COC(C)(C)C2
4. Cc1cc(-c2c(-c3ccc(F)cc3)nn3c2OCC2(C3)CC2(F)F)c2cn[nH]c2n1 (single isomer, unassigned) [Example 474]

Response:
1. 8.40
2. 4.97
3. 5.64
4. 8.70

Would you mind listing pIC50 for each of the following compounds?
1. COCC[C@@]1(C)CCc2c(-c3ccnc4[nH]ncc34)c(-c3ccc(F)cn3)nn2C1 (single isomer, unassigned)
2. Cc1nc2[nH]ncc2c(-c2c(-c3ccc(F)cn3)nn3c2CO[C@@](C)(C(F)(F)F)C3)c1F (single isomer, unassigned)
3. Fc1ccc(-c2nn3c(c2-c2ccnc4[nH]ncc24)OCCCC3)nc1
4. Cc1cc(-c2c(-c3ncc(F)cc3F)nn3c2COC(C)(C)C3)c2cn[nH]c2n1
5. CC1(C)COc2c(-c3ccnc4ccsc34)c(-c3ccc(F)cn3)nn2C1

Response:
1: 7.09; 2: 7.62; 3: 6.62; 4: 7.04; 5: 7.12

// each compound listed below needs its pIC50
1. C[C@H]1Cn2nc(-c3ccc(F)cc3)c(-c3ccnc4[nH]ncc34)c2CO1 (single isomer, unassigned)
2. Fc1ccc(-c2nn3c(c2-c2c(F)cnc4[nH]ncc24)CC2(C3)CC2(F)F)nc1 (single isomer, unassigned) [Example 258]

Response:
7.32
7.15

====

So I've got a bunch of compounds here, and I need their IC50 values.
# test-target: human CSNK1D (Homo sapiens, UniProt P48730)
# assay-procedure: Whole Cell nBRET CSNK1D Binding Assay
# condition-summary: living CHO cells stably expressing human CSNK1D tagged with nanoluciferase; NanoBret tracer 130 nM; 2 hours at 37 C
Answers are plain numbers, in nM.

Prompt: Return the recorded IC50 value; entry: CC1(C)CCc2c(-c3ccnc4[nH]ncc34)c(-c3ccc(F)cn3)nn2C1 [Example 49]
Response: 11

Prompt: For CC[C@@]1(C)Cn2nc(-c3ccc(F)cn3)c(-c3ccnc4[nH]ncc34)c2CO1 (single isomer, unassigned) [Example 170] , write its IC50.
Response: 42

Prompt: Item [2H]C([2H])([2H])C1(C([2H])([2H])[2H])Cn2nc(-c3ccc(F)cn3)c(-c3ccnc(NC(=O)CC)c3)c2CO1 [Example 395] : provide IC50
Response: 21

Prompt: // Input: Fc1ccc(-c2nn3c(c2-c2ccn4nccc4c2)OCC2(CC2)C3)cc1 [Example 466] . Output its IC50 only.
Response: 24

Prompt: Output IC50 of Fc1ccc(-c2nn3c(c2-c2ccnc4[nH]ncc24)CC[C@H]2C[C@H]23)cc1 (stereo in doubt) [Example 339]
Response: 7

Respectfully, I request IC50 for each entry included below.
1. Fc1ccc(-c2nn3c(c2-c2ccnc4[nH]ncc24)CC2(C3)CC2(F)F)nc1 (single isomer, unassigned) [Example 254]
2. CC1(C)CCn2nc(-c3ccc(F)cn3)c(-c3ccnc4[nH]ncc34)c2C1 [Example 50]

Response:
[85, 28]

====

# test-target: human recombinant GST cleaved CSNK1D (Homo sapiens, UniProt P48730)
# Construct: GST (cleaved yes)
# assay-procedure: Purified Enzyme Assay (ADP-Glo CSNK1D Kinase Assay)
# condition-summary: 2 nM CSNK1D; peptide substrate 150 μM; ATP 20 μM; 45 minutes at room temperature
recorded-metric: pIC50
Answers are plain numbers, as −log10 of the molar value.

Please review the entries below; each comes with its answer.
Prompt: System human recombinant GST cleaved CSNK1D (Homo sapiens, UniProt P48730). Read-out pIC50. Item Fc1ccc(-c2nn3c(c2-c2ccnc4[nH]ncc24)C[C@@H]2[C@H](C3)C2(F)F)cc1 (stereo in doubt) . Report value.
Response: 9.00

Prompt: Give pIC50 only, for COC[C@]1(F)CCc2c(-c3cc(C)nc4[nH]ncc34)c(-c3ccc(F)cn3)nn2C1 (single isomer, unassigned) [Example 53] , using human recombinant GST cleaved CSNK1D (Homo sapiens, UniProt P48730) data.
Response: 8.40

Kindly review the next compound as well.
Prompt: Look up and report measured pIC50 (human recombinant GST cleaved CSNK1D (Homo sapiens, UniProt P48730)) for the following compound: [2H]C([2H])([2H])[C@]1(C#N)CCc2c(-c3ccnc4[nH]ncc34)c(-c3ccc(F)cn3)nn2C1 (single isomer, unassigned)
Response: 9.00
